Some compounds, each annotated with its measured activation.
Molecular target: Aryl hydrocarbon receptor (Homo sapiens) (UniProt P35869)
Sequence (P35869 whole entry, looked up): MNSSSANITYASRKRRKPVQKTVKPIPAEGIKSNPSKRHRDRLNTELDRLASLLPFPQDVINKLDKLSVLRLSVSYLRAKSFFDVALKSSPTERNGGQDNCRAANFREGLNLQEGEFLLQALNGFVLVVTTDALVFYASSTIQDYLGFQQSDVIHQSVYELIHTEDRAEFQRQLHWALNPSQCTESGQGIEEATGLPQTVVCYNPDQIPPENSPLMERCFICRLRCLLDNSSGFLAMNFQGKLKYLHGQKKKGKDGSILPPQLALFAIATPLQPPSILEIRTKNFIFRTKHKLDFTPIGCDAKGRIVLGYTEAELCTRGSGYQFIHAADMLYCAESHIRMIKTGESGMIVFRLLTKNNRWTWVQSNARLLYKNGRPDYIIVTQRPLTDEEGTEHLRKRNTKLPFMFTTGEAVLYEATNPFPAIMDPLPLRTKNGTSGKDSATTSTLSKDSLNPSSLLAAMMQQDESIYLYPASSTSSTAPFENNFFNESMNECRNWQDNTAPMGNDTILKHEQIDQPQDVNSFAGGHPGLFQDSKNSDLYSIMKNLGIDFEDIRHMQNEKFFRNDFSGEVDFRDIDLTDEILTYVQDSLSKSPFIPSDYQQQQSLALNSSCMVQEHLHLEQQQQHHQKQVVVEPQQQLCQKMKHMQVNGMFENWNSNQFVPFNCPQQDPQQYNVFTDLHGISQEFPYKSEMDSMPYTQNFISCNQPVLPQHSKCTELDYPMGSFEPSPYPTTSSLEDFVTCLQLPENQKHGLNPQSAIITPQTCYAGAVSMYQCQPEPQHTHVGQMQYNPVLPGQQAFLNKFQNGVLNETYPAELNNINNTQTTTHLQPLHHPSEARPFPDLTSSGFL
Assay: AHR activators, primary screen, cell-based, luminescence, luciferase reporter, human (AID 2796);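 note: 0% = vehicle wells and 100% = reference agonist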
Details: AHR-responsive luciferase reporter cells, at 5 µM, stronger effect = higher value
Out of some 320,000 compounds screened, about 8,000 (2.5%) were called active. For the sample, actives were picked, then their nearest neighbours and some compounds at random.
measured-quantity: activation (%)

Cc1ccc(O)c(CCc2ccccc2)n1 : 21.5
CC(=O)N1c2ccc(S(=O)(=O)N3CCCC(C(=O)Nc4ccc(C)cc4C)C3)cc2CC1C (stereo unspecified) : 0.6
C/C(=N\Nc1ncc(Cl)cc1Cl)c1cccs1 : 1.11
O=c1oc(-c2ccco2)nc2sc3c(c12)CCCCC3 : 5.12
O=C(Nc1ccc(NC(=O)c2ccc3c(c2)OCO3)cc1)c1cccc(Cl)c1 : -2.05
Cc1cccc(NC(=O)/C=C/c2ccc3c(c2)OCO3)n1 : -3.06
Cc1nc2c(ncn2-c2ccccc2)c(=O)n1NC(=O)CN1CCCC1 : 0.17
COc1ccc(NC(=O)c2cc([N+](=O)[O-])ccc2NC(=O)CNC2CCCCC2C)c(OC)c1 (stereo unspecified) : 47.4
Cc1cccc(Nc2nc(NCCO)nc(N3CCCC3)n2)c1 : 19.5
Fc1ccccc1/C=N/n1c(-c2cccnc2)n[nH]c1=S : 5.29
COc1ccc2oc(C(=O)OCC(=O)N(CC(C)C)c3c(N)n(Cc4ccccc4)c(=O)[nH]c3=O)c(C)c2c1 : -3.35
CCC1C(=O)c2ccccc2N(C)C1=O (stereo unspecified) : 9.44
COc1cc([N+](=O)[O-])ccc1NC(=O)CN1CCCC1 : 4.3
Cc1cccc(NC(=O)Nc2ccc3c(c2)OCO3)n1 : 180
CCCCNC(=O)C1(c2ccc(OC)cc2)CCOCC1 : 0.03
COc1cccc(/C(C)=N/Nc2ncc(Cl)cc2Cl)c1 : 53.5

* * *

Target: Aryl hydrocarbon receptor (Homo sapiens) (UniProt P35869)
Test: AHR activators, primary screen, cell-based, luminescence, luciferase reporter, human (AID 2796);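 note: 0% = vehicle wells and 100% = reference agonist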
Conditions: AHR-responsive luciferase reporter cells, at 5 µM, stronger effect = higher value
Hit rate of the full screen: of about 320,000 compounds, about 8,000 (2.5%) were called active. Shown is part of a subset that was picked to be rich in actives.
Some compounds, each annotated with its measured activation.
measured-quantity: activation (%)

CCc1ccccc1NC(=O)/C(=C/c1ccccc1)c1ccccc1 : 0.15
Cc1cc(C)c(/C=C2\C(=O)Nc3ccccc32)[nH]1 : 47
CC(C)n1ncc2c(C(=O)NCc3ccccc3CN(C)C)cc(C3CC3)nc21 : 2.81
Cc1nn2c3cc(N4CCOCC4)ccc3nc2c2ccccc12 : 144
CC1=C(C(=O)OCc2ccccc2)C(c2ccco2)n2ncnc2N1 (stereo unspecified) : 1.22
Nc1ncnc2c1ncn2[C@@H]1O[C@H](CNCc2cccn2-c2nccs2)[C@@H](O)[C@H]1O : -1.49
Cn1c(=NC(=O)c2cnccn2)sc2ccccc21 : 13.9
CC(=O)Oc1ccc2c(=O)oc(-c3ccc([N+](=O)[O-])cc3)nc2c1 : 14.1
CC(C)n1ncc2c(C(=O)Nc3ccc(CC#N)cc3)cc(C3CC3)nc21 : 89.9
CCC(C)NC(=O)C1CCC(=O)N1Cc1ccc(C)cc1 (stereo unspecified) : 4.04
CCC(CC)c1nnc(NC(=O)/C=C/c2ccco2)s1 : 46.2
COc1ccc(Oc2cn[nH]c2-c2ccc(OC)cc2O)cc1 : 6.87
COc1cccc(-c2nc3cc(C)ccc3o2)c1 : 83.1
COC(=O)c1[nH]c2ccc(Br)cc2c1NC(=O)Oc1ccccc1 : 48.5
C[C@H](C(=O)CC(=O)OC(C)(C)C)[C@H](O)c1ccc(C(F)(F)F)cc1 : 1.94
CN(C)/C=C1/Nc2ccccc2C1=O : 33.7
Cc1c([N+](=O)[O-])c(N)nn1C : 2.61
CCCN(C(=O)CSc1nnc(N)s1)c1c(N)n(Cc2ccccc2)c(=O)[nH]c1=O : 0.7
CCc1ccc(CNC(=O)C2CCN(c3nnc(C)c4c(C)n(-c5ccc(C)cc5)nc34)CC2)cc1 : 1.85
C/C(=N\NC(=S)NCc1ccccc1)C1CCCCC1 : 3.74
O=C(NC(CC(=O)N1CCN(c2ccccc2)CC1)c1ccccc1)c1ccccc1Cl (stereo unspecified) : -0.75
